Catalogue of protein stability index values
- Test summary: protein stability index of a GFP-peptide fusion (yeast GPS) (PSI 1-4); higher = more stable; sorted into four equal gates, so the index is relative within each strain
- Conditions: san1∆
Metric name: protein stability index

>>> measured_number("MTTPQNISSSQQLLPAP [DSN1]")
2.74
>>> measured_number("GSYIDKKCPFTGLVSIR [RPS11A]")
2.27
>>> measured_number("NKIIPNVGLCITIYDLL [RPC25]")
1.29
>>> measured_number("SAENRDEKDYLTNQQPK [CSE2]")
2.54
>>> measured_number("SFDAVSDSIELLKQYPK [YJR042W/NUP85]")
2.56
>>> measured_number("IGQFLEPIDQNTGIVSS [RPT3]")
2.14
>>> measured_number("LVPTASFFIASQLQEQF [FAS1]")
1.53
>>> measured_number("YFKLSITSFDQDVDDAH [POP8]")
1.78
>>> measured_number("RARKDRMRVSVLEKYEV [SSN3]")
2.19
>>> measured_number("LQIKRDVLDDLYRKLQR [CSE2]")
3.01
>>> measured_number("ESLYDLIEFQPSQGVHY [MED6]")
2.91
>>> measured_number("CCTKFFTMMTSEPLTLK [PCI8]")
1.98
>>> measured_number("DDYILSGESVMDRDSES [SRB4]")
3.34
>>> measured_number("LASFEKTTDHLFDAAFY [RPO31]")
2.96
>>> measured_number("SNGVLNVDNQTSDLVKS [RPS17A]")
3.06
>>> measured_number("ILNFLNQEDLFELVHHF [YML103C/NUP188]")
1.88
>>> measured_number("LILQRLKDLNLTVSIKI [RGR1]")
2.65
>>> measured_number("KTVKELRQLLKERYTVE [RRI1]")
2.1
>>> measured_number("SVQLPDMAKLKKMMNTS [SWI3]")
1.91
>>> measured_number("QKMAKAKKQNRPLPQWI [RPL39]")
3
>>> measured_number("LEFARITPMNDDQCMLI [SIN4]")
2.25
>>> measured_number("SASTSATGISGSVSEET [ECM29]")
3.12
>>> measured_number("FSTNVKDEIVLSGNSVE [RPL9A]")
2.34
>>> measured_number("ENEISSLLAMHKHNIMK [CDC53]")
3.02
>>> measured_number("HIIQAKADAQREKALNE [RPL19A]")
3.33
>>> measured_number("SFKIFVDVLVISSHSHP [RRP42]")
1.19
>>> measured_number("FDMTNHYNDSQQLRTWK [SRB8]")
3
>>> measured_number("GVFDPASYSKYLIDHIK [RPL22B]")
2.92
>>> measured_number("QQTAKKLIPKLYRYRFD [ECM29]")
2.24
>>> measured_number("SSAAILGLGIAFAGSKN [RPN1]")
2.03
>>> measured_number("ILDSLPSVIHSSVEMLL [YDL116W/NUP84]")
1.39
>>> measured_number("HPGYDCWLSNIDIQTQD [RRI1]")
3.08
>>> measured_number("DIKVLKRQLIKERNQKF [YIL149C/MLP2]")
2.5
>>> measured_number("NEAALVVNITHHELVPK [RPB5]")
3.14
>>> measured_number("LNVKCTRNPDAPKGSTD [RPC40]")
3.04
>>> measured_number("LNVPVFQIVIEPLAIAL [ARP7]")
1.48
>>> measured_number("VQLPILKIIYTGLCSFD [YJL039C/NUP192]")
1.26
>>> measured_number("FGLGYGDVGKNHITEFP [RPC31]")
3.38
>>> measured_number("KENYPWELYTDFNEIVQ [POP3]")
2.4
>>> measured_number("FLQDKVQIKDVNDRYQI [CSI1]")
1.05
>>> measured_number("SSHLSDNDFIINDFKKI [POP5]")
2.75
>>> measured_number("FRTVKEMVKDRGYFITQ [RPB5]")
1.72
>>> measured_number("VSPNAAPRQEISEEETT [YAR002W/NUP60]")
2.9
>>> measured_number("MMVNISVLISIPLDNYD [PCI8]")
1.72
>>> measured_number("AKKTIQNPLNKSQNTAL [SIR4]")
2.99
>>> measured_number("DDENEPKRKRRLPVSED [YOR098C/NUP1]")
3.09

###

- Test summary: protein stability index of a GFP-peptide fusion (yeast GPS) (PSI 1-4); higher = more stable; sorted into four equal gates, so the index is relative within each strain
- Conditions: pdr5∆
Label yes (1) when protein stability index is at or above 3; anything below gets no (0).

>>> category("QSLNEMVKLIVMLCTLT [YJL039C/NUP192]")
"no (0)"
>>> category("AKCNSLLQLKYFSNKTS [POP5]")
"no (0)"
>>> category("QENKNIDDENITKLNKE [SRB4]")
"yes (1)"
>>> category("KKKTKKELELERKERED [SWI1]")
"yes (1)"
>>> category("AMTAAEHGLHAPAYAWS [CYT1]")
"yes (1)"
>>> category("SVYYHKGNFRTKPFENV [SNU114]")
"yes (1)"
>>> category("GRYLLTPPDDLHPYVPS [SRB8]")
"no (0)"
>>> category("EEISFSLSEGCDILVAT [PRP28]")
"no (0)"
>>> category("GIVLEKLGIESKQPNSA [RPS23A]")
"no (0)"
>>> category("QSDSAKVEIKKVNSRDD [PRP28]")
"yes (1)"
>>> category("KKVMPAIVVRQAKSWRR [RPL23A]")
"no (0)"
>>> category("QSRLFINELVLENFKSY [SMC4]")
"no (0)"
>>> category("SVHHARVLITQRHIAVG [RPS9A]")
"no (0)"
>>> category("DPPKGILLYGPPGTGKT [RPT1]")
"no (0)"
>>> category("TKKTITPMGGFVHYGEI [RPL3]")
"yes (1)"
>>> category("FTRPLFVLLEIEPVTKV [YCS4]")
"no (0)"
>>> category("LRAIEKNDDNSCRNPEH [YIL149C/MLP2]")
"yes (1)"
>>> category("LENKADPLVSLMMVEKV [RPT6]")
"no (0)"
>>> category("ITYTPVRHGRAGATTSR [RPS15]")
"no (0)"
>>> category("SEISDGKLKRCSRCGSV [SIN4]")
"yes (1)"
>>> category("KDRISSCSSKEKTLVLE [SMC4]")
"no (0)"
>>> category("LIPDGRHLVNRGREEAA [PRE10]")
"no (0)"
>>> category("GVQTAYIDYSSKRYIPS [RRP40]")
"no (0)"
>>> category("NVFGTLQRHSGISSTLV [YLR018C/POM34]")
"no (0)"
>>> category("IVQELLDKNLIKLVKQN [RPC34]")
"no (0)"
>>> category("FAAAPNDTSSGTNAMLP [SNF5]")
"yes (1)"
>>> category("TANANKPAFSFGATTND [YJL041W/NSP1]")
"no (0)"
>>> category("IAATQDFITGSYLISHK [RPO31]")
"yes (1)"
>>> category("NLMILNTKVPVDIVNQW [YML103C/NUP188]")
"no (0)"
>>> category("AKNRILASKIKQYERLR [RRI1]")
"no (0)"
>>> category("ERFTKSKTLSLIQSYSL [FAS1]")
"no (0)"
>>> category("RNVTIQLENADTGTLDT [RPN2]")
"yes (1)"
>>> category("KISDDELERILKELSNL [RPB4]")
"yes (1)"
>>> category("VIRDSVTYTEHAKRKTV [HHF1]")
"no (0)"
>>> category("ESLILKWDNQSASRAKN [RGR1]")
"yes (1)"
>>> category("HPTIYESLPQYVDFVPM [POP4]")
"no (0)"
>>> category("LNESDCLEACSFILSSL [YDL116W/NUP84]")
"no (0)"
>>> category("YKRSIVRNYKPLINRLK [SWI1]")
"no (0)"
>>> category("YHQLLSDIESLEALMDI [SRB8]")
"no (0)"
>>> category("AMKELAEKKIPLVIRRY [RPO26]")
"no (0)"
>>> category("FPIALQWTGGRGGGHHS [FAS1]")
"no (0)"

###

- Test summary: protein stability index of a GFP-peptide fusion (yeast GPS) (PSI 1-4); higher = more stable; sorted into four equal gates, so the index is relative within each strain
- Conditions: san1∆
Catalogue of protein stability index values
Metric name: protein stability index

>>> measured_number("VAGLEDKFRKACSSSGR [SIR3]")
2.98
>>> measured_number("DIKAPSTFENRNVGKTL [RPS1A]")
3
>>> measured_number("DPALLRPGRIDRKIEFP [RPT6]")
3.05
>>> measured_number("SKQDVEALIEFIYDTEK [FAS2]")
3.04
